- Assayed Target: GAK (Homo sapiens)
- Sequence (O14976 whole entry): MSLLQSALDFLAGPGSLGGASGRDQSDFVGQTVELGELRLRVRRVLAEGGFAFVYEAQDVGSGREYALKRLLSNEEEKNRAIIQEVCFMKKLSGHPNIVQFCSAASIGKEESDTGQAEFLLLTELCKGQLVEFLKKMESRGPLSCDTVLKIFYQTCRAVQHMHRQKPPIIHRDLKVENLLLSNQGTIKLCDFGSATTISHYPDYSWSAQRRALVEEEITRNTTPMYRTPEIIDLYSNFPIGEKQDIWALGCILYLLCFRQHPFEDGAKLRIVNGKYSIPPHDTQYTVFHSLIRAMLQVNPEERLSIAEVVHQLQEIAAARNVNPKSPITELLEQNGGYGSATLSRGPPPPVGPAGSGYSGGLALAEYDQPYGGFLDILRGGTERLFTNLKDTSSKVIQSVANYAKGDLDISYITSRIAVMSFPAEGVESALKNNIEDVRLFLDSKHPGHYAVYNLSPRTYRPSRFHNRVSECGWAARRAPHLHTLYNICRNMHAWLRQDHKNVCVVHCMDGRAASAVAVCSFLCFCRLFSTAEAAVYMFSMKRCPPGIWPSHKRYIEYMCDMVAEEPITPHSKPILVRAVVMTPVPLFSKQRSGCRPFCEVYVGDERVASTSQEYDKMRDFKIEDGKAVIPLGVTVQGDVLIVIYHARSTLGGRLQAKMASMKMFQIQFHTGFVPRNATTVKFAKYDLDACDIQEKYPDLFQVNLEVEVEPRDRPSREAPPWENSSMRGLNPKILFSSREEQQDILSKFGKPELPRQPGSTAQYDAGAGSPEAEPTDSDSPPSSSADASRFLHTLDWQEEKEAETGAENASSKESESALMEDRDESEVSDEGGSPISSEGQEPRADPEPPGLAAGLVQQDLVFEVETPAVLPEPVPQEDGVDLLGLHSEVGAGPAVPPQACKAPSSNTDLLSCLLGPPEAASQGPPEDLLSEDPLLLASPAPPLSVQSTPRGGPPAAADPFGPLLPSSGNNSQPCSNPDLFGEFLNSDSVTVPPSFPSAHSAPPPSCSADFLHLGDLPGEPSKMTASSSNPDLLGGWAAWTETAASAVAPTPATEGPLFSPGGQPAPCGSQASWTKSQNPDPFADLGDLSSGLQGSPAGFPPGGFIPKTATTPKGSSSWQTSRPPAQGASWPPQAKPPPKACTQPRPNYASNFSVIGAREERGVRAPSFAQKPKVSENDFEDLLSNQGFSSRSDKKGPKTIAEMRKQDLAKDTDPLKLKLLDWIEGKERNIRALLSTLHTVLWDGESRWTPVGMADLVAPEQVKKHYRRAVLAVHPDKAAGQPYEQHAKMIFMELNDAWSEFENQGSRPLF
- Experiment Summary: biochemical
- Type: binding
- Measurement Conditions: read-out: GAK Kd

[
  {
    "Smiles Data": "NC(=O)Nc1cc(-c2cccc(F)c2)sc1C(=O)N[C@H]1CCCNC1",
    "Kd / nM": 1.4
  }
]

###

- Assayed Target: BIKE (Homo sapiens)
- Sequence (Q9NSY1 whole entry): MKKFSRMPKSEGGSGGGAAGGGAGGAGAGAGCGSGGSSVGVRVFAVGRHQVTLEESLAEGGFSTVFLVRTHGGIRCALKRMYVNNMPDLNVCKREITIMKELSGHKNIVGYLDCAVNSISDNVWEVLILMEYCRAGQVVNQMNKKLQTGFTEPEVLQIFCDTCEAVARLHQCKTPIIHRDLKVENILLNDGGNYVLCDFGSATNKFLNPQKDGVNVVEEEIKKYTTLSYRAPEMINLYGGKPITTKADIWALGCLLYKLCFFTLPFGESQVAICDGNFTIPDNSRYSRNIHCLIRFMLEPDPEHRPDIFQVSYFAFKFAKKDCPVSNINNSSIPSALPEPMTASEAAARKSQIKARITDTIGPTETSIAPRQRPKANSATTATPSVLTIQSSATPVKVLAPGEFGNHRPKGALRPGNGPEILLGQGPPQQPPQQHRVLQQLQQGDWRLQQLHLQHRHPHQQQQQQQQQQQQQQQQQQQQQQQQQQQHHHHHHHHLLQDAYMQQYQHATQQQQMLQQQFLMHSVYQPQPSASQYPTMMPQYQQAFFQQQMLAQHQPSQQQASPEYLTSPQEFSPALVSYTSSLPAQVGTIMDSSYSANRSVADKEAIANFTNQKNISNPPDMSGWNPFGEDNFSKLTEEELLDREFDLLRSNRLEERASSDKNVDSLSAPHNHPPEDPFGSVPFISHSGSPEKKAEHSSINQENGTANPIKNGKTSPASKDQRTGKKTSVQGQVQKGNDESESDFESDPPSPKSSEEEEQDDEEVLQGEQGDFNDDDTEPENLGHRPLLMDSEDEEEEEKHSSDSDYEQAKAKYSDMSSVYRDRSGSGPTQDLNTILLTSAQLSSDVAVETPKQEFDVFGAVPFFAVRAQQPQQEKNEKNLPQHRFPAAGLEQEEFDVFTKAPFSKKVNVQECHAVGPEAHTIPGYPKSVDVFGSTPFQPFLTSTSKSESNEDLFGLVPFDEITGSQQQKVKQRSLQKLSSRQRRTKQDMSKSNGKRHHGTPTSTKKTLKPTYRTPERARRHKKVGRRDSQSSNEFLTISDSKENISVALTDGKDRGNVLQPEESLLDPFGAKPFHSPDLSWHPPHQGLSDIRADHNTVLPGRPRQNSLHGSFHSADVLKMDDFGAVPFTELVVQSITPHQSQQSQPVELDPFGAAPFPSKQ
pKd: −log10 of the molar value.
Attribute: pKd

[
  {
    "Smiles Data": "NC(=O)Nc1cc(-c2cccc(F)c2)sc1C(=O)N[C@H]1CCCNC1",
    "pKd": 7.89
  },
  {
    "Smiles Data": "CC[C@@H]1CN(C(=O)NCC(F)(F)F)C[C@@H]1c1cnc2cnc3[nH]ccc3n12",
    "pKd": 4.96
  }
]
